Where do the numbers come from? From ChEMBL document CHEMBL1157539.

# log10 XC50 listing for each entry below
Tested on: Plasmodium falciparum
measurement.description: GSK_TCMDC: Inhibition of Plasmodium falciparum 3D7 in whole erythrocytes, using parasite LDH activity as an index of growth.
Assay type: functional, organism-based
condition.info: Plasmodium falciparum, 3D7
assay.endpoint: log10 XC50 (log10 of the value in nM)

molecule	log10 XC50
CN1CCN(CCCN(Cc2csc(-c3ccc(CNCc4ccccc4)cc3)n2)S(=O)(=O)c2ccccc2Cl)CC1	2.94
CC1(C)CN(CCC2CCC(NC(=O)/C=C/c3ccc(F)cc3F)CC2)Cc2ccc(C#N)cc21 (stereo not given)	2.90
Cc1ccc(CCOCCCCCNCC(O)c2cc(Cl)c(N)c(Cl)c2)cc1 (stereo not given)	2.98
CCC(=O)Oc1ccc(NC(=O)c2cccc(OC)c2)cc1	2.89
Cc1cc2ncn(-c3ccnc(N4CCN(CCCN5CCCC5)CC4)n3)c2cc1C	2.92
Cc1ccc(NC(=O)c2cn(-c3ccccc3)nc2-c2ccc(F)cc2)cc1[N+](=O)[O-]	3.00
CCN(CC)CCNc1cc(C)nc(NC(=N)Nc2ccc(Cl)cc2)n1	2.11
c1ccc(CNCc2cccc(-c3ccc(-c4nc5ccccc5[nH]4)cc3)c2)cc1	2.91
CC1CN(c2cnn(Cc3cccc(NC(=O)Nc4ccc(F)cc4[N+](=O)[O-])c3)c(=O)c2Cl)CC(C)N1 (stereo not given)	2.94
COc1ccc(NC(=O)[C@H](C)Nc2cc(C)nc(NCC3CCCCC3)n2)cc1	3.11
CCCc1cc(N2CCC(c3ccccc3)(N3CCCCC3)CC2)nc(Nc2ccc(OC)cc2)n1	3.04
Cc1ccc2[nH]c(-c3ccccc3N)cc2c1	2.97
O=C(/C=C/c1ccccc1Cl)NC1CCC(CN2CCC(c3c[nH]c4ccncc34)CC2)CC1 (stereo not given)	2.52
CCOc1ccc(N2C(N)=NC(N)=NC2(C)C)cc1	2.41
COC(=O)Cn1c(C2CCN(CC3CCN(C(=O)/C=C/c4ccc(Cl)c(Cl)c4)CC3)CC2)nc2ccccc21	3.08
CC(=O)Nc1cccc(C(=O)Nc2ccc(-c3cccc(-c4nc5cccc(C)c5[nH]4)c3)cc2)c1	2.90
CCc1ccc(C(=O)NC(=O)c2ccccc2O)cc1	2.79
Cc1ccc2ccccc2c1CCCON1C(=N)N=C(N)NC1(C)C	0.51
CCNc1cc(C(=O)N[C@@H](Cc2ccccc2)[C@H](O)CNCc2cc(OC)cc(OC)c2)cc(N2CCCS2(=O)=O)c1	1.63
Cc1ccc(Cn2ccc3c4c(N)nc(N)nc4ccc32)cc1	0.51
O=C(Nc1cc(Cl)cc(Cl)c1)c1cnn(-c2ccc(F)cc2)c1C1CCNCC1	2.93
CCN(CC)/C(=N/C(=N)Nc1ccc(C)cc1)NCCCCCCN/C(=N\C(=N)Nc1ccc(C)cc1)N(CC)CC	2.73
CC1N=C(N)N=C(N)N1OCc1ccccc1 (stereo not given)	1.52
COc1c(F)ccc2ncc(Cl)c(CCN3CCC(NCc4ccc5c(n4)NC(=O)CS5)CC3)c12	2.74
COc1cccc(OC2CCN(C(=O)c3ccc(-c4ccc(N5CCCC5=O)cc4C)cc3)CC2)c1	3.00
O=C(Nc1ccc(OC(F)(F)F)cc1)NC1CCN(c2ccnc3ccccc23)CC1	2.47
Nc1ccc2nc(C=Cc3ccccc3)[nH]c2c1	2.87
Nc1nc(N)c2c(Sc3ccccc3)cccc2n1	2.81
Clc1ccc(CNc2ccnc(NCc3ccc4c(c3)OCCCO4)n2)c(Cl)c1	3.00
CCOc1cc(Cc2cnc(N)nc2N)cc(OCC)c1-n1cccc1 [EPIROPRIM]	2.88
CCc1ccc(NC(=O)c2cccc(CN3CCCN(CC4CCCCC4)CC3)c2)cc1	2.98
CCC(CC)OC(=O)C(C)c1cccc(C(=O)c2ccccc2)c1 (stereo not given)	2.92
COc1ccc2ncc(C)c(CCN3CCC(NCc4ccc5c(n4)NC(=O)CS5)CC3)c2c1	2.74
O=C(NCc1ccco1)c1ccc(S(=O)(=O)c2ccc(Cl)cc2)cc1	2.65
COCCNCc1cccc(-c2ccc3nccc(Nc4cc(O)ccc4C)c3c2)c1	2.87
CN(C)CCN(C)C(=O)c1cc(-c2ccncc2)c(-c2ccc(Cl)c(O)c2)o1	3.02
CCOc1cc(C(=O)N[C@@H](Cc2ccccc2)[C@H](O)CNC(C)(C)c2cccc(OC)c2)cc(N2CCCS2(=O)=O)c1	2.35
O=C(Nc1cccc(-c2nn3ccccc3c2-c2ccnc(Nc3ccccc3)n2)c1)c1c(F)cccc1F	2.85
CC(C)CNCc1ccc(-c2ccccc2CN(C(=O)NCCc2ccccc2)C2CCN(Cc3ccccc3)CC2)cc1	2.94
CN1CCCN(Cc2ccc(-c3cccc(NC(=O)c4ccc(Cl)cc4)c3)cc2)CC1	2.79
